target: recombinant human sEH (Homo sapiens, UniProt P34913)
Sequence (P34913 whole entry): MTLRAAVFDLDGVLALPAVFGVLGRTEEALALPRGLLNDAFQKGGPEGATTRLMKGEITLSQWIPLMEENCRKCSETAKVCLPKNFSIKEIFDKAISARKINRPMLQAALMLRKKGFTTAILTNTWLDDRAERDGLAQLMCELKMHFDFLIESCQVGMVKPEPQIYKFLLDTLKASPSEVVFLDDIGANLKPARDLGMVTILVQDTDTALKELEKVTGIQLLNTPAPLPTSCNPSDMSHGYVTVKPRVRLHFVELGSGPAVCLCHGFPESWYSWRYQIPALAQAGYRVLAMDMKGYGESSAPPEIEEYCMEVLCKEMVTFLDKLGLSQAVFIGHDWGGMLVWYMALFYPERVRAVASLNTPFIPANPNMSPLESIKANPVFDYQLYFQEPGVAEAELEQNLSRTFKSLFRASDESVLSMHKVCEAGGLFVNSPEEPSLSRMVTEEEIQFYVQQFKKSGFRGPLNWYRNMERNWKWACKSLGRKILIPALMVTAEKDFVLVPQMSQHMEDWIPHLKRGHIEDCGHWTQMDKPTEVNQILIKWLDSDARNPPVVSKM
assay remarks: Enzyme kinetics (Dixon method, t-DPPO substrate), dissociation constant
readout name: pKi
Lab note: report pKi as minus log10 of the concentration in molar units, number only.

Which value of pKi has been reported for "COc1ccc(CNC(=O)NCc2ccc(OC)cc2)cc1" in the records?
7.27

====

target: recombinant human sEH (Homo sapiens, UniProt P34913)
Construct: made in house; host or cells: insect High Five cells, recombinant baculovirus
assay remarks: sEH inhibition by radioactivity-based assay (t-DPPO assay), human
Format: biochemical
condition parameters: t-DPPO 50 μM, mean ± SD of three measurements
Below is a list of entries, each paired with its recorded IC50 value.
Just the number please, in µM, no unit attached.

Which IC50 value belongs to "O=C(NCc1ccccc1)NCc1ccccc1" ?
48.3

Can you look up the measured IC50 of "COc1ccc(CNC(=O)NCc2ccc(OC)cc2)cc1" for me?
2.6

What does the record list as IC50 for C=CCc1ccc(O)c(-c2ccc(O)c(CC=C)c2)c1 [honokiol, reference compound] ?
20.3

Quick one: IC50 for "COc1ccc(CNC(=O)NCc2ccccc2)cc1" ?
10.2

Sourced from paper PMC4319826
